biological target: PfPKG (Plasmodium falciparum); test: biochemical; details: biochemical assay; read-out: PfPKG pIC50 (converted)
Sequence (Q8I719 whole entry): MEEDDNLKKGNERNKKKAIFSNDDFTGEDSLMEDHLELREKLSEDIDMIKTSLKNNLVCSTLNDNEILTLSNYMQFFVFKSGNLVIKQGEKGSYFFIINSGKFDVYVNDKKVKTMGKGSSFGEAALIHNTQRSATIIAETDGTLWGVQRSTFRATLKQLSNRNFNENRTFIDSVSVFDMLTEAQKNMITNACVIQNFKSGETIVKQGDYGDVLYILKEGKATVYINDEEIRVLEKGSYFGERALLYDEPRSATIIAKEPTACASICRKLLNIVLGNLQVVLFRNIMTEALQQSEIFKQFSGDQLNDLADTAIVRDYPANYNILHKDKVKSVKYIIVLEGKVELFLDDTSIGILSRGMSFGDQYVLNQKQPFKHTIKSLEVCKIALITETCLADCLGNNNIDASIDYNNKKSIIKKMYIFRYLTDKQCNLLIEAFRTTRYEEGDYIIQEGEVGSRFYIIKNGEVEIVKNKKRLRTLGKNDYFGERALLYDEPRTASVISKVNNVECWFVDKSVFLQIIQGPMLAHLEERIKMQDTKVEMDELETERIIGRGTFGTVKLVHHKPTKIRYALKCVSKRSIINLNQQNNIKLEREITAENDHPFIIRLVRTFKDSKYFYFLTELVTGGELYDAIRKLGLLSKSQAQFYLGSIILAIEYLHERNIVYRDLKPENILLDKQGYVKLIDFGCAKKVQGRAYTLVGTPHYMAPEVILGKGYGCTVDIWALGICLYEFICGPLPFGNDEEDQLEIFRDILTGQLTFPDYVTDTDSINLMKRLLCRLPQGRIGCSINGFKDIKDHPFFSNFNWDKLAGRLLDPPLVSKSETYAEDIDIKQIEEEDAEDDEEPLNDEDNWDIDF
reported.property: IC50 (nM)

> print(dat)
                               smiles.record  readout.value
 1  CN(C)CCCNc1ccc2nc(-c3ccc(F)cc3)c(-c3ccnc(N)n3)n2c1           12.6
 2  CN1CCN(c2ccc3nc(-c4ccc(F)cc4)c(-c4ccnc(N)n4)n3c2)CC1           2.63
 3  CN(C)Cc1ccn2c(-c3ccnc(Nc4ccc(N5CCNCC5)cc4)n3)c(C3CC3)nc2c1           4.47
 4  CC(C)Nc1nccc(-c2c(C3CC3)nc3cc(CN(C)C)ccn23)n1           43.7
 5  CN(C)Cc1ccn2c(-c3ccnc(Nc4ccc(N5CCN(C)CC5)cc4)n3)c(C3CC3)nc2c1           7.24
 6  CNc1nccc(-c2c(-c3ccc(F)cc3)nc3cc(NCCN(C)C)ccn23)n1           2.75
 7  CN(C)CCNc1ccn2c(-c3ccnc(N)n3)c(-c3ccc(F)cc3)nc2c1           2.57
 8  CN(C)Cc1ccn2c(-c3ccnc(N)n3)c(C(F)(F)F)nc2c1            148
 9        Cc1nc2cc(CN(C)C)ccn2c1-c1ccnc(N)n1           57.5
10  CN(C)Cc1ccn2c(-c3ccnc(N)n3)c(C3CC3)nc2c1           35.5
11  CN1CCN(c2ccn3c(-c4ccnc(N)n4)c(-c4ccc(F)cc4)nc3c2)CC1           3.31
12  CN(C)CCc1ccn2c(-c3ccnc(N)n3)c(-c3ccc(F)cc3)nc2c1           20.4
13  CN(C)Cc1cccn2c(-c3ccnc(N)n3)c(-c3ccc(F)cc3)nc12           29.5
14  CN(C)Cc1ccc2nc(-c3ccc(F)cc3)c(-c3ccnc(N)n3)n2c1           51.3
